# test_system: cathepsin K (Homo sapiens, UniProt P43235)
# Sequence (P43235 115-329): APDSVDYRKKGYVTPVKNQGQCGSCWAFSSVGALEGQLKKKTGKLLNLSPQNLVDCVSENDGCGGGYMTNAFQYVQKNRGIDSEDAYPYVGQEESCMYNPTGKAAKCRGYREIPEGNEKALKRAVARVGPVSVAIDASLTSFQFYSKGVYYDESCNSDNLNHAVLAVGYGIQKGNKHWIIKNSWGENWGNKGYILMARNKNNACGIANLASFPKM
# method: Cathepsin K inhibition studies (progress curve method, fluorogenic peptide substrate)
# conditions: human recombinant enzyme; substrate typically Cbz-Phe-Arg-AMC; 100 mM Na acetate pH 5.5, 20 mM cysteine, 5 mM EDTA, 10% DMSO
# Method: Determination of Cathepsin K Proteolytic Catalytic Activity All assays for cathepsin K were carried out with human recombinant enzyme. Standard assay conditions for the determination of kinetic constants used a fluorogenic peptide substrate, typically Cbz-Phe-Arg-AMC, and were determined in 100 mM Na acetate at pH 5.5 containing 20 mM cysteine and 5 mM EDTA. […] Potential inhibitors were evaluated using the progress curve method. […]
endpoint_label: Ki

Problem: Reported Ki, compound CC(C)C[C@H](NS(=O)(=O)c1cccc2cccnc12)C(=O)NC1COCC1=O (stereo partly shown) : ____
Result: > 10 µM
